read-out: catalase (CAT), CAT (gene 847); assay: LTEA_HepaRG_CAT: Life Technologies and Expression Analysis (LTEA) Assay for catalase (CAT) using HepaRG (AID 2283452); conditions: mRNA level, 48 h; actives raise or lower the signal;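 for AC50: TaqMan qRT-PCR signal normalized to ACTB GAPDH and POLR2A housekeeping genes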
The source made the active and inactive calls. Rule for the calls: active = hit-call score of the fitted dose curve at least 0.9, where 1 is the maximum; inactive = score below 0.9.
measuredEndpoint: AC50

Worked examples follow.
O=c1n(CC2CO2)c(=O)n(CC2CO2)c(=O)n1CC1CO1 (stereo not given) ... inactive
O=C(O)CCN(C1(C(=O)NO)CCCC1)S(=O)(=O)c1ccc(Oc2ccc(F)cc2)cc1 ... inactive
O=c1[nH]c2ccc(S(=O)CCN3CCC(Cc4ccc(F)cc4)CC3)cc2o1 (stereo not given) ... 67.3 µM (active)
CCOC(=O)c1ccc(C2CCC(NC[C@H](O)COc3ccc(O)c(NS(C)(=O)=O)c3)CC2)cc1 (stereo not given in full) ... inactive

Ask: Entry CCOC(=O)COc1ccc2c(c1)CC(NCC(O)c1cccc(Cl)c1)CC2 (stereo not given) has what AC50?
Reply: inactive

Measured values drawn from PubChem BioAssay (EPA / NIEHS) for this set.
